Please provide measured CC50 for the entries that follow.
Assay: Vero E6 cell cytotoxicity, dose response, cytotoxicity control for non-replicating M. tuberculosis project, secondary assay (AID 492998)
Assay type: functional, VeroE6
Conditions: Mycobacterium tuberculosis, Vero C1008
The source made the active and inactive calls.

The compound identified as `O=C(N/N=C\c1ccc([N+](=O)[O-])s1)c1cncc(Br)c1` registered its CC50 at 4.83 µM (active)

Field CC50 (entry `N#C/C(N=Nc1ccccc1O)=N\Nc1ccccc1O` ) reads 7.05 µM (active)

response.value for `CC1=NNC(=O)/C1=C\c1cn(-c2ccccc2)nc1-c1ccccc1` (field: CC50) = 10.1 µM (active)

So for `NC(=O)N=Nc1c2nc3ccccc3[nH]c-2c2ccccc12` , the logged CC50 turned out to be 11.9 µM (active)

====

Test: viability of uninfected HEp-2 cells – cell-based, HTS, cytotoxicity control for RSV inhibitor project, dose response (AID 2410)
Type: functional
Conditions: human respiratory syncytial virus
Activity calls are given as the source filed them.
Measurement label: CC50

Please fill in: CC50 reported for C[C@]12CC[C@@H]3c4ccc(O)cc4CC[C@H]3[C@@H]1CCC2=O [ESTRONE] = 33 µM (active)

# CC50 of C/C(=N\N=C(/N)SC1CC(=O)N(c2cccc(Cl)c2)C1=O)c1cccs1 (stereo unspecified) = 19.4 µM (active)

Memo: `CC(C)c1nc(SCc2c(F)cccc2Cl)c2c(=O)n(C)c(=O)n(C)c2n1` , reported CC50: 7.44 µM (active)

// CC50 lookup, compound = C=C1C[C@H]2[C@@H]3C=C(C)C4=CC(=O)CC[C@]4(C)[C@H]3CC[C@]2(C)[C@@]1(OC(C)=O)C(C)=O [MELENGESTROL ACETATE] , result: 26.5 µM (active)

# CC50 of `CCOC(=O)CN1C(=O)N[C@@H](c2cccc(F)c2)C(C(C)=O)=C1C` = 44.1 µM (active)

Summary for this compound, `C/C(CCc1oc2ccc(Cl)cc2c1-c1ccc(C)o1)=N\O` : CC50 is 37.9 µM (active)

====

Tested on: BJ
Test: growth inhibition of engineered Ras-driven BJ cells – cell-based, alamar blue fluorescence, cherrypicked samples, dose response (AID 2631);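 also: confirmatory dose-response assay in RAS-dependent BJ fibroblasts engineered with TERT, LT and ST, with cytotoxicity read by fluorescence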
Format: functional
Details: Homo sapiens
Activity calls are given as the source filed them.
Just give me one of these, please: active, inactive

### Prompt What call does the record list for `CCCN1C=CC(=C2C(=O)c3ccccc3C2=O)C=C1` ?
### Response inactive

### Prompt Which outcome was entered for the compound `CCc1ccc(/C=C2/SC(=S)N(CCC(=O)Nc3cccnc3)C2=O)cc1` in this test?
### Response inactive

### Prompt # outcome recorded in this test, key = `COc1ccccc1N1CCN(C(=O)c2cc(=O)c3cc(C)cc(C)c3o2)CC1`
### Response active

### Prompt Can you look up the reported call for `CCN1/C(=C/c2ccc3ccccc3[n+]2CC)C=Cc2ccccc21` for me?
### Response active

====

Target: Eukaryotic translation initiation factor 4E (Mus musculus, UniProt P63073)
Sequence (P63073 whole entry): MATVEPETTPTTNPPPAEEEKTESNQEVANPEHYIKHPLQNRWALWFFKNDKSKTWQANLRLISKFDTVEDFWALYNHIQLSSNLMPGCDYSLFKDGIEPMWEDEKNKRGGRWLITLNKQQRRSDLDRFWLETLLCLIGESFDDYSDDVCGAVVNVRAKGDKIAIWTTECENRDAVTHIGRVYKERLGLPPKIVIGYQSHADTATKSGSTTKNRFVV
Assay: blockers of eIF4G binding by eIF4E – biochemical, TR-FRET, dose response (AID 855);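 also: potency for disrupting eIF4E binding to eIF4GI seen as loss of FRET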
Type: functional
Active and inactive are the calls of the source.
Give measured IC50 for each item. Keep answers brief.

Input `Fc1cccc(Cl)c1CNc1ccc(N2CCCC2)cc1` . Output IC50: 50 µM (inactive)

In plain terms, `Cc1cc(/C=N/Nc2ccc([N+](=O)[O-])cn2)c(C)n1-c1ccc(C(=O)O)cc1` has a documented IC50 of 50 µM (inactive)

// sample `O=C(NN1CCOCC1)c1cc(-c2ccc(Br)cc2)nc2ccccc12` , its IC50 was > 64 µM (inactive)

Input `Cc1ccc(C(=O)CSc2ncnc3sc4c(c23)CCCC4)cc1` . Output IC50: > 64 µM (inactive)

Item: `CCCS(=O)(=O)N1CCN(S(=O)(=O)c2ccccc2)CC1` | IC50: > 64 µM (inactive)

Looking up `CC(C)c1ccc(CN2CCC(C(=O)NCc3cccnc3)CC2)cc1` , I found its IC50 recorded as > 64 µM (inactive)

Documented IC50 of `O=C(/C=C/c1ccco1)N(c1ccccn1)c1ccccn1` : 50 µM (inactive)

So for `COc1ccc(C(=O)OCC[N+]2(C)CCOCC2)cc1` , the logged IC50 turned out to be 50 µM (inactive)

Per the record, `CCN1/C(=C/c2ccc3ccccc3[n+]2CC)C=Cc2ccccc21` has IC50 of 33.8 µM (inactive)

Measured values drawn from ChEMBL document CHEMBL1201862 for this set.
